test: TOX21_p53_BLA_p4_viability: Viability Assessment in the Tox21 HCT-116 p53 Agonism Beta-lactamase Assay, Phase 4 (AID 2283597);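 also: hits lower the luminescence signal meaning cytotoxicity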
Records with an inconclusive call do not appear. The source made the active and inactive calls. The calls were made as follows: active = hit-call score of the fitted dose curve at least 0.9, where 1 is the maximum; inconclusive = response in the unintended direction; inactive = score below 0.9.
Outcomes: active, inactive

- compound: "CCOC(=O)N(C)C(=O)CSP(=S)(OCC)OCC"
  group: "inactive"
- compound: "Oc1cc(Cl)c(Cl)c(Cl)c1"
  group: "active"
- compound: "O=c1oc2ccccc2c(O)c1Cc1c(O)c2ccccc2oc1=O"
  group: "active"
- compound: "Cc1nnc2n1-c1ccc(Cl)cc1C(c1ccccc1)=NC2"
  group: "inactive"
- compound: "C=CCSSCC=C"
  group: "inactive"
- compound: "O=C(O)C(Br)Br"
  group: "inactive"
- compound: "CN1C[C@@H](NS(=O)(=O)N(C)C)C[C@@H]2c3cccc4c3c(cn4C)C[C@H]21"
  group: "inactive"
- compound: "CC(O)CN(CC(C)O)CC(C)O (stereo not drawn)"
  group: "inactive"
- compound: "CNCC(=O)c1ccc(O)c(O)c1"
  group: "inactive"
- compound: "O=[Se]=O"
  group: "active"
- compound: "CNC(=O)Oc1ccccc1C(=O)Nc1ccccc1"
  group: "inactive"
- compound: "c1ccc2c(c1)Sc1ccccc1N2C[C@@H]1CN2CCC1CC2"
  group: "inactive"
- compound: "COc1cccc(C(=O)CCN[C@@H](C)[C@H](O)c2ccccc2)c1"
  group: "inactive"

* * *

test: ATG_ERE_CIS: Attagene CIS-FACTORIAL HepG2 Assay for Estrogen Response Element (ERE) (AID 2282940)
condition_context: HepG2 ERE cis-reporter, Attagene RNA transcript; actives raise or lower the signal
Activity calls are given as the source filed them. Rule for the calls: active = hit-call score of the fitted dose curve at least 0.9, where 1 is the maximum; inactive = score below 0.9.
Outcomes: active, inactive

- compound: "O=[N+]([O-])c1cc(C(F)(F)F)c(Cl)c([N+](=O)[O-])c1Cl"
  group: "inactive"
- compound: "ClC1=C(Cl)[C@]2(Cl)[C@@H]3[C@@H](Cl)[C@H](Cl)C[C@@H]3[C@@]1(Cl)C2(Cl)Cl"
  group: "inactive"
- compound: "Oc1ccc(C2(c3ccc(O)cc3)c3ccccc3-c3ccccc32)cc1"
  group: "inactive"
- compound: "c1ccc(Nc2ccc3ccccc3c2)cc1"
  group: "active"
- compound: "CN(C)CCC#N"
  group: "inactive"
- compound: "C=CC(=O)OCCCCOC(=O)C=C"
  group: "inactive"
- compound: "C[N+](C)=CCl"
  group: "inactive"
- compound: "COc1ncc(F)c2nc(S(=O)(=O)Nc3c(F)cccc3F)nn12"
  group: "inactive"
- compound: "C[N+](C)(C)CC(=O)[O-]"
  group: "inactive"
- compound: "ClCC(Cl)Cl"
  group: "inactive"
- compound: "CN1C[C@H](C(=O)N[C@]2(C)O[C@@]3(O)[C@@H]4CCCN4C(=O)[C@H](Cc4ccccc4)N3C2=O)C=C2c3cccc4[nH]cc(c34)C[C@H]21"
  group: "inactive"

* * *

test: IUF_NPC5_oligodendrocyte_differentiation_120hr: Leibniz Research Institute for Environmental Medicine (IUF) 120-hour Oligodendrocyte Differentiation Assay (NPC5) (AID 2284304);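 also: primary human fetal neural progenitor spheres plated to migrate and differentiate; share of O4-positive cells among Hoechst nuclei found by CNN image analysis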
Records with an inconclusive call do not appear. Activity calls are given as the source filed them. The calls were made as follows: active = hit-call score of the fitted dose curve at least 0.9, where 1 is the maximum; inconclusive = response in the unintended direction; inactive = score below 0.9.
Outcomes: active, inactive

- molecule: "Brc1ccc(Oc2cc(Br)c(Br)cc2Br)c(Br)c1"
  group: "inactive"
- molecule: "CCOP(=S)(OCC)SCS(=O)C(C)(C)C (stereo not given)"
  group: "inactive"
- molecule: "CC(C)CC(C)c1sccc1NC(=O)c1cn(C)nc1C(F)(F)F (stereo not given)"
  group: "active"
- molecule: "CC1(C)C(C=C(Cl)Cl)[C@H]1C(=O)O[C@H](C#N)c1cccc(Oc2ccccc2)c1 (stereo not given in full)"
  group: "active"
- molecule: "CC1(C)C(C=C(Cl)c2ccc(Cl)cc2)C1C(=O)OC(C#N)c1ccc(F)c(Oc2ccccc2)c1 (stereo not given)"
  group: "inactive"
- molecule: "CCOP(=O)(OCC)SCSCC"
  group: "inactive"
- molecule: "CCOP(=O)(Oc1cnc(C(C)(C)C)nc1)OC(C)C (stereo not given)"
  group: "inactive"
- molecule: "O=[As]O"
  group: "inactive"
- molecule: "O=C1N[C@@H]2C(=C[C@H](O)[C@@H](O)[C@H]2O)c2cc3c(c(O)c21)OCO3"
  group: "active"
- molecule: "Cc1ccc(OP(=O)(Oc2ccc(C)cc2)Oc2ccc(C)cc2)cc1 (tested in a mixture with another compound)"
  group: "inactive"

* * *

Read-out: Epidermal growth factor receptor (EGFR), EGFR (gene 1956)
test: BSK_hDFCGF_EGFR: BioMAP Diversity Plus: hDFCGF Assay for Epidermal growth factor receptor (EGFR) Biomarker Activity (AID 2283057)
condition_context: primary human foreskin fibroblasts; actives raise or lower the signal
The source made the active and inactive calls. Rule for the calls: active = hit-call score of the fitted dose curve at least 0.9, where 1 is the maximum; inactive = score below 0.9.
Outcomes: active, inactive

- compound: "C=CCN(CC=C)C(=O)C(Cl)Cl"
  group: "inactive"
- compound: "COCC(=O)N(c1c(C)cccc1C)N1CCOC1=O"
  group: "inactive"
- compound: "O=c1c2ccccc2c(=O)c2c1cc(Cl)c1[nH]c3c([nH]c12)c(Cl)cc1c(=O)c2ccccc2c(=O)c13"
  group: "inactive"
- compound: "CCCCCCCCCCCC#N"
  group: "inactive"
- compound: "O=S(=O)(c1ccccc1)c1ccccc1"
  group: "inactive"
- compound: "CCCC[N+](CCCC)(CCCC)CCCC"
  group: "inactive"
- compound: "CC1(C)[C@H](C(=O)O[C@H](C#N)c2cccc(Oc3ccccc3)c2)[C@@H]1C=C(Br)Br"
  group: "inactive"
- compound: "c1ccc(Nc2ccc3ccccc3c2)cc1"
  group: "inactive"
- compound: "O=C1C=CC(=O)C=C1"
  group: "inactive"
- compound: "C=CC(=O)OCC(CC)CCCC (stereo not drawn)"
  group: "inactive"
- compound: "CCCOC(=O)c1ccccc1C(=O)OCCC"
  group: "inactive"
- compound: "CC(C)CCCCCCCOP(=O)(Oc1ccccc1)Oc1ccccc1"
  group: "active"
- compound: "O=P1(NCCCl)OCCCN1CCCl (stereo not drawn)"
  group: "inactive"

* * *

test: BSK_3C_Proliferation: Cell Proliferation Assessment in the BioMAP Diversity Plus: 3C Assay (AID 2283006)
condition_context: primary human endothelial cells (HUVEC)
Calls of active or inactive are those of the source. How the source made its calls: active means hit-call score of the fitted dose curve at least 0.9, where 1 is the maximum; inactive means score below 0.9.
Outcomes: active, inactive

- compound: "O=c1c2ccccc2c(=O)c2c1cc(Cl)c1[nH]c3c([nH]c12)c(Cl)cc1c(=O)c2ccccc2c(=O)c13"
  group: "inactive"
- compound: "CC(C)CCCCCCCOP(=O)(Oc1ccccc1)Oc1ccccc1"
  group: "active"
- compound: "O=P1(NCCCl)OCCCN1CCCl (stereo not drawn)"
  group: "inactive"
- compound: "Oc1cc(Cl)ccc1Cl"
  group: "inactive"
- compound: "O=[N+]([O-])C=Cc1ccccc1"
  group: "active"
- compound: "CC(C)(c1cc(Cl)c(O)c(Cl)c1)c1cc(Cl)c(O)c(Cl)c1"
  group: "active"
- compound: "COCC(=O)N(c1c(C)cccc1C)N1CCOC1=O"
  group: "inactive"
- compound: "CCc1cc(C)cc(CC)c1-c1c(OC(=O)C(C)(C)C)n2n(c1=O)CCOCC2"
  group: "inactive"

* * *

target_or_test_system: Cellular tumor antigen p53 (Homo sapiens)
test: TOX21_p53_BLA_p4_ratio: Tox21 HCT-116 p53 Agonism Beta-lactamase Assay, Ratio, Phase 4 (AID 2283601)
Inconclusive results are not listed. Calls of active or inactive are those of the source. Rule for the calls: active = hit-call score of the fitted dose curve at least 0.9, where 1 is the maximum; inconclusive = response in the unintended direction; inactive = score below 0.9.
Outcomes: TRUE for active, FALSE for inactive

- compound: "Cc1cc(C)cc(C(=O)OC2C[C@H]3CC[C@@H](C2)N3C)c1 (stereo partly drawn)"
  group: "FALSE"
- compound: "CN=CNc1ccc(C)cc1C"
  group: "FALSE"
- compound: "CNC(=O)Oc1ccccc1C1OCCO1"
  group: "FALSE"
- compound: "C=C[C@H]1CN2CC[C@H]1C[C@@H]2[C@@H](O)c1ccnc2ccccc12"
  group: "FALSE"
- compound: "COc1cc(CC(C)N)c(OC)cc1Br (stereo not drawn)"
  group: "FALSE"
- compound: "COC(=O)C(Cl)C(=O)OC"
  group: "FALSE"
- compound: "N#CSCc1ccccc1"
  group: "FALSE"
- compound: "COc1cc(OC)c(OC)cc1C=O"
  group: "FALSE"
- compound: "Clc1ccc(C(Cl)(Cl)Cl)c(Cl)c1"
  group: "FALSE"
- compound: "O=Cc1ccccc1"
  group: "FALSE"
- compound: "CCCC(C)(COC(N)=O)COC(=O)NC1CC1 (stereo not drawn)"
  group: "FALSE"
- compound: "O=[N+]([O-])c1ccc(Cl)cc1"
  group: "FALSE"
- compound: "C=CCN(CC=C)C(=O)C(Cl)Cl"
  group: "FALSE"
- compound: "Cc1cc(Cl)ccc1N=CN(C)C"
  group: "FALSE"
- compound: "CCC(C)(S(=O)(=O)CC)S(=O)(=O)CC"
  group: "FALSE"
- compound: "CCC1(CC)C(=O)C=CNC1=O"
  group: "FALSE"
- compound: "CC(C)CCCCCCCOP(=O)(Oc1ccccc1)Oc1ccccc1"
  group: "FALSE"
- compound: "Oc1cccc[c]1[Hg][Cl]"
  group: "TRUE"
- compound: "CCCCCCC#N"
  group: "FALSE"
- compound: "O=C(NC(=O)c1c(F)cccc1F)Nc1ccc(Oc2ccc(C(F)(F)F)cc2Cl)cc1F"
  group: "FALSE"
- compound: "CN1[C@@H]2CC[C@H]1CC(O)C2 (stereo partly drawn)"
  group: "FALSE"
- compound: "CCCC[N+]1(C)CCCC1 (tested in a mixture with another compound)"
  group: "TRUE"
- compound: "CCN(C(C)=O)c1cccc(-c2ccnc3c(C#N)cnn23)c1"
  group: "FALSE"
- compound: "O=C(CCN1CC1)OCC(CO)(COC(=O)CCN1CC1)COC(=O)CCN1CC1"
  group: "FALSE"
- compound: "CC(O)C(=O)[O][Hg][c]1ccccc1 (stereo not drawn)"
  group: "TRUE"
- compound: "CC(C)NC(C)C"
  group: "FALSE"
- compound: "C#C[C@]1(O)C=C[C@H]2[C@@H]3CCC4=CC(=O)CC[C@@H]4[C@H]3CC[C@@]21CC"
  group: "FALSE"
- compound: "CCC(C)Cl (stereo not drawn)"
  group: "FALSE"
